B1: CCDC6 (parent)
chain: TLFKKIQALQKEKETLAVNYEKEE

- Variants of: B1
- run-description: protein stability index of a GFP-peptide fusion (GPS, HEK-293T) (PSI 1-6); higher = more stable;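 note: lentivirally expressed fusions sorted by FACS into six bins by GFP to DsRed ratio, PSI derived from sequencing read proportions per bin multiplied by bin number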
- condition-context: c terminus: a fixed tail appended
Below: a set of entries, each annotated with reported protein stability index.
Write no unit; give the number alone.

Below are worked cases with known answers.
TLFKKIQALQKEKECLAVNYEKEE : 2.84
TLFKKIQELQKEKETLAVNYEKEE : 4.05
ILFKKIQALQKEKETLAVNYEKEE : 2.69

Task: If you can, please state the reported protein stability index value of TLFKKKQALQKEKETLAVNYEKEE .
Result: 4.92

Task: One more variant: TLFKKIQALQKEKEQLAVNYEKEE
Result: 2.98

Task: One more variant: TLFKKIQALQKEKETLAVYYEKEE
Result: 2.33

Task: One more variant: TLFKKIQALQKTKETLAVNYEKEE
Result: 2.62

Task: One more variant: TLFKKIQADQKEKETLAVNYEKEE
Result: 4.67
